Test system: NCI/ADR-RES
TEST SUMMARY: NCI tumour cell line growth inhibition, 48 h
Calls of active or inactive are those of the source. Rule as the data show it: active = GI50 up to about 1.1 µM and inactive = higher.
MEASURED ENDPOINT: GI50

Reference set, count: 10
| COMPOUND | GI50 |
| --- | --- |
| COc1ccc2oc3c(ccc[n+]3C)c(=O)c2c1 | > 100 µM (inactive) |
| O=c1oc2cc(/N=C/c3ccccc3Cl)ccc2c2ccccc12 | > 100 µM (inactive) |
| COc1cc(CN(C)N2C(=O)c3cccc4cc([N+](=O)[O-])cc(c34)C2=O)cc(OC)c1OC | > 100 µM (inactive) |
| Cc1cn(C2CC(N=[N+]=[N-])C(CO)O2)c(=O)n(CCCCBr)c1=O (stereo unspecified) | 63.8 µM (inactive) |
| COCCN(CCNC(=O)c1cccc2c(N)c3cccc(C)c3nc12)CCOC | 4.4 µM (inactive) |
| CC(C)(C)OC(=O)n1cc(C2CN(O)C(=O)C23CCC(=O)N3Cc2ccccc2)c2ccccc21 (stereo unspecified) | 69.5 µM (inactive) |
| COc1ccc2c(=O)c(O)c(-c3ccc(OC)c(OC)c3)oc2c1 | 2.23 µM (inactive) |
| COc1cc(C2c3cc4c(cc3OC(N3CCOCC3)C2C)OCO4)cc(OC)c1OC(C)=O (stereo unspecified) | 4.69 µM (inactive) |
| COc1cc(C2S/C(=C/c3ccccc3)C(=O)N2c2ccc(Cl)c(Cl)c2)cc(OC)c1OC (stereo unspecified) | 32.6 µM (inactive) |
| CSCCC(NC(=O)C(Cc1c[nH]c2ccccc12)NC(=O)CCNC(=O)OC(C)(C)C)C(=O)NC(CC(=O)O)C(=O)NC(Cc1ccccc1)C(N)=O (stereo unspecified) | > 50 µM (inactive) |

Exam item: Give the reported GI50 for this compound. CC(=O)NC1C(O)C(O)C(CO)OC1n1ncc(=O)[nH]c1=O (stereo unspecified)
Marked response: > 100 µM (inactive)

Exam item: Give the reported GI50 for this compound. "CCn1c2ccccc2c2nnc(NCCCO)nc21"
Marked response: > 100 µM (inactive)

Exam item: Give the reported GI50 for this compound. "O=C1C=CC(=O)c2c1ccc1c3ccccc3n(-c3cccc([N+](=O)[O-])c3)c21"
Marked response: > 5.58 µM (inactive)

Exam item: Give the reported GI50 for this compound. NC1CCC(N(CC(=O)O)CC(=O)O)C(N(CC(=O)O)CC(=O)O)C1 (stereo unspecified)
Marked response: > 100 µM (inactive)

Exam item: Give the reported GI50 for this compound. "Cc1nc(Nc2ccccc2Cl)sc1C(=O)CC(=O)C(N)=O"
Marked response: 31.3 µM (inactive)

Exam item: Give the reported GI50 for this compound. Nc1nc(N)c2c3c(cnc2n1)CC(c1ccccc1)CC3 (stereo unspecified)
Marked response: 20.3 µM (inactive)

Exam item: Give the reported GI50 for this compound. "Nc1ccc(-c2nc3ccc(F)cc3s2)cc1"
Marked response: 33.9 µM (inactive)

Exam item: Give the reported GI50 for this compound. "Nc1c2ccccc2nc2ccc3c(=O)cc(-c4ccccc4)oc3c12"
Marked response: 1.35 µM (inactive)

Exam item: Give the reported GI50 for this compound. "CC(=O)Oc1c(OC(C)=O)c(-c2ccc(O)c(O)c2)c(O)c(O)c1-c1ccc(O)cc1"
Marked response: > 100 µM (inactive)

Exam item: Give the reported GI50 for this compound. CCC1(C)NC(c2cnccn2)=NN1c1ccc(Cl)cc1 (stereo unspecified)
Marked response: > 100 µM (inactive)

Exam item: Give the reported GI50 for this compound. Cn1c(=O)c2c(nc(N)n2C2OC(CO)C(O)C2O)n(C)c1=O (stereo unspecified)
Marked response: > 100 µM (inactive)
